Test system: soybean
Assay: Test A preemergence
Format: in vivo, Glycine max
Conditions: Glycine max, pre-emergence, 240 h, 125 g ai/ha, visual injury after 10 days, 0 to 100 scale, 0 is no effect, 100 is complete control, read-out: Plant response rating, Soybean
readout: plant injury at 125 g/ha (%)
Give bare numbers, in %.

[
  {
    "compound": "CCc1ccc(-n2cnc(C(C)C)n2)cc1C(=O)N1C[C@H](C)Oc2c(Cl)cccc21 [Compound 94]",
    "unitsText": "%",
    "recordedNumber": 50
  },
  {
    "compound": "Cc1ccc(-n2cnc(C3CCC3)n2)cc1C(=O)N1C[C@H](C)Oc2c(Cl)cccc21 [Compound 96]",
    "unitsText": "%",
    "recordedNumber": 50
  },
  {
    "compound": "Cc1cccc2c1O[C@@H](C)CN2C(=O)c1cccc(-n2cn[nH]c2=O)c1 [Compound 122]",
    "unitsText": "%",
    "recordedNumber": 0
  },
  {
    "compound": "COCc1ncn(-c2cccc(C(=O)N3C[C@H](C)Oc4c(C)cccc43)c2)n1 [Compound 101]",
    "unitsText": "%",
    "recordedNumber": 20
  }
]

Now consider a different compound.
INPUT: Reported plant injury at 125 g/ha, compound Cc1ccc(-n2cnc(C(C)C)n2)cc1C(=O)N1C[C@H](C)Oc2c(Cl)cccc21 [Compound 73] : ____
OUTPUT: 60

###

Tested on: ryegrass, Italian
Assay: Test C preemergence
Type: in vivo, Lolium multiflorum
Details: Test C, preemergence, 125 g ai/ha; 0 to 100 scale (0 no effect, 100 complete control)
Please use fulfilled whenever Ryegrass, Italian plant response rating is not below 80, and not fulfilled whenever it is.

Solved cases (3 shown):
[
  {
    "molecule": "Cc1cccc2c1O[C@H](C)CN2C(=O)c1cccc(-c2ncn(C(C)C)n2)c1 [Compound 221]",
    "className": "not fulfilled"
  },
  {
    "molecule": "CC(C)Oc1ncn(-c2cccc(C(=O)N3C[C@H](C)Oc4c(Cl)cccc43)c2)n1 [Compound 312]",
    "className": "not fulfilled"
  },
  {
    "molecule": "COC[C@H]1CN(C(=O)c2cc(-n3cnc(C4CCC4)n3)ccc2C)c2cccc(Cl)c2O1 [Compound 267]",
    "className": "not fulfilled"
  }
]

INPUT: Ryegrass, Italian plant response rating >= 80 for CCc1ccc(-n2cnc(C(C)C)n2)cc1C(=O)N1C[C@H](C)Oc2c(C)cccc21 [Compound 240] ?
OUTPUT: fulfilled

INPUT: Now give it for C[C@H]1CN(C(=O)c2cccc(-c3ncccn3)c2)c2cccc(Cl)c2O1 [Compound 203] too.
OUTPUT: not fulfilled

###

Tested on: ryegrass, Italian
Test: Test C postemergence
Assay type: in vivo, Lolium multiflorum
Conditions: 500 g ai/ha, postemergence, 10 days, 0 to 100 scale (0 no effect, 100 complete control)
readout: Plant response rating, Ryegrass, Italian
One number for each entry.

Answered examples (5):
[
  {
    "compound": "COCc1ncn(-c2ccc(C)c(C(=O)N3C[C@H](C)Oc4c(Cl)cccc43)c2)n1 [Compound 357]",
    "Plant response rating, Ryegrass, Italian": 100
  },
  {
    "compound": "CC(C)c1ncn(-c2cc(C(=O)N3CC(C(F)(F)F)Oc4c(Cl)cccc43)ccn2)n1 (single isomer, unassigned) [Compound 330]",
    "Plant response rating, Ryegrass, Italian": 90
  },
  {
    "compound": "CCOC[C@H]1CN(C(=O)c2cc(-n3cnc(C(C)C)n3)ccc2OC)c2cccc(Cl)c2O1 [Compound 341]",
    "Plant response rating, Ryegrass, Italian": 60
  },
  {
    "compound": "CC(C)c1ncn(-c2ccc([S+](C)[O-])c(C(=O)N3C[C@H](C)Oc4c(Cl)cccc43)c2)n1 (stereo partly drawn) [Compound 394]",
    "Plant response rating, Ryegrass, Italian": 90
  },
  {
    "compound": "CC(C)(C)c1ncn(-c2cc(C(=O)N3CC(C(F)(F)F)Oc4c(Cl)cccc43)ccn2)n1 (stereo not drawn) [Compound 322]",
    "Plant response rating, Ryegrass, Italian": 40
  }
]

Below is a list of compounds. For each, state its recorded Plant response rating, Ryegrass, Italian.
1. CC(=O)N(C)c1ncn(-c2cccc(C(=O)N3C[C@H](C)Oc4c(C)cccc43)c2)n1 [Compound 336]
2. Cc1cccc2c1O[C@@H](C)CN2C(=O)c1cc(-n2cnc(C(C)C)n2)cc2c1CCO2 [Compound 392]
3. Cc1ncc(-c2cccc(C(=O)N3C[C@H](C)Oc4c(Cl)cccc43)c2)o1 [Compound 352]
4. CC(C)c1ncn(-c2cccc(C(=O)N3CC(C(F)(F)F)Oc4c(Cl)cccc43)c2)n1 (single isomer, unassigned) [Compound 289]
5. Cc1cccc2c1OC(C(F)(F)F)CN2C(=O)c1ccnc(-n2cnc(C(C)C)n2)c1 (stereo not drawn) [Compound 327]

OUTPUT:
1. 80
2. 100
3. 10
4. 90
5. 80

Below is a list of compounds. For each, state its recorded Plant response rating, Ryegrass, Italian.
1. CNc1ncn(-c2cccc(C(=O)N3C[C@H](C)Oc4c(C)cccc43)c2)n1 [Compound 337]
2. CCc1ncn(-c2cccc(C(=O)N3CC(C(F)(F)F)Oc4c(C)cccc43)c2)n1 (stereo not drawn) [Compound 344]

OUTPUT:
[70, 100]

These entries and their values trace back to patent US20260262643A1.
